- experimental-target: Human PD-L1/PD-1 (Homo sapiens, UniProt Q9NZQ7)
- Construct: made in house; host or cells: HEK293T
- Sequence (Q9NZQ7 with tags, fused parts or gaps): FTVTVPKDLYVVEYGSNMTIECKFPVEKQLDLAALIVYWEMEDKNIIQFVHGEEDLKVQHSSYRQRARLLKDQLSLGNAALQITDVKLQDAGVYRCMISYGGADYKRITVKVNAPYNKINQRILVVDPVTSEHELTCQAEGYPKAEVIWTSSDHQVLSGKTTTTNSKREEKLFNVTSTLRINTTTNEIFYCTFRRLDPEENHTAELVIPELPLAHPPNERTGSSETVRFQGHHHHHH
- protocol: HTRF PD-1-Ig/PD-L1-His binding assay (human PD-L1)
- measurement-setup: cluster symbol; read-out: HTRF IC50 cluster
Positions of bridges follow the written chain, without caps; N, C: chain ends. Non-standard residues stand in square brackets, D forms with d. Residues, ends and D or L forms follow the SMILES beside them. ξ: configuration not given here. Phe(3,4-(OMe)2) = COc1ccc(C[C@H](N)C(=O)O)cc1OC; Bta = N[C@@H](Cc1csc2ccccc12)C(=O)O; NMeF = CN[C@@H](Cc1ccccc1)C(=O)O; dNMeNle = CCCC[C@@H](NC)C(=O)O; NMeNle = CCCC[C@H](NC)C(=O)O; hSer = N[C@@H](CCO)C(=O)O; NMeA = CN[C@@H](C)C(=O)O; dDap = NC[C@@H](N)C(=O)O; Dab = NCC[C@H](N)C(=O)O; ξP = O=C(O)C1CCCN1; ξC = NC(CS)C(=O)O; Sar = CNCC(=O)O
measured-metric: IC50

{"columns": ["molecule", "reported-measurement"],
 "data": [
  ["CCCC[C@H]1C(=O)N(C)CC(=O)N[C@@H](CC(=O)O)C(=O)N[C@@H](C(C)C)C(=O)N(C)[C@@H](Cc2ccccc2)C(=O)N[C@@H](Cc2ccc(OC)c(OC)c2)C(=O)N(C)CC(=O)N[C@@H](Cc2c[nH]c3ccccc23)C(=O)N[C@@H](Cc2ccc(O)cc2)C(=O)N[C@@H](CC(C)C)C(=O)N[C@H](C(=O)NCC(N)=O)CSCC(=O)N[C@@H](Cc2ccccc2)C(=O)N(C)[C@@H](Cc2ccccc2)C(=O)N1C [Example 3533] ({CH2CO}-F[NMeF][NMeNle][Sar]DV[NMeF][Phe(3,4-(OMe)2)][Sar]WYLCG-NH2; thioether N-13)", "6.76 to 30.3 nM"]
]}

q: May I ask what IC50 has been recorded for CCCC[C@@H]1C(=O)N(C)[C@H](CCCC)C(=O)N[C@@H](C)C(=O)N[C@@H](C(=O)NCC(N)=O)CSCC(=O)N[C@@H](Cc2ccc(O)cc2)C(=O)N2CCCC2C(=O)N[C@H](CC(=O)O)C(=O)N2CCC[C@H]2C(=O)N[C@H](CN)C(=O)N[C@@H](CC(=O)O)C(=O)N2CCCC2C(=O)N[C@H](Cc2c[nH]c3ccccc23)C(=O)N[C@@H](CCN)C(=O)N[C@@H](Cc2c[nH]c3ccccc23)C(=O)N1C (stereo partly shown) [Example 1210] ({CH2CO}-Y[ξP][dD]P[dDap]D[ξP][dW][Dab]W[dNMeNle][dNMeNle]A[dC]G-NH2; thioether N-14) ?
a: > 30.5 nM

q: Item: CCCC[C@H]1C(=O)N(C)CC(=O)N[C@@H](CC(=O)O)C(=O)N[C@@H](COC)C(=O)N(C)[C@@H](Cc2ccccc2)C(=O)N[C@@H](Cc2ccc(O)cc2)C(=O)N(C)CC(=O)N[C@@H](Cc2c[nH]c3ccccc23)C(=O)N[C@@H](Cc2ccc(O)cc2)C(=O)N[C@@H](CC(C)C)C(=O)N[C@H](C(=O)NCC(N)=O)CSCC(=O)N[C@@H](Cc2ccccc2)C(=O)N(C)[C@@H](Cc2ccccc2)C(=O)N1C [Example 3155] ({CH2CO}-F[NMeF][NMeNle][Sar]DS(Me)[NMeF]Y[Sar]WYLCG-NH2; thioether N-13)
a: > 30.5 nM

q: Item: CCCC[C@H]1C(=O)N(C)[C@@H](CCCC)C(=O)N[C@@H](CCCNC(=N)N)C(=O)NC(C(=O)NCC(N)=O)CSCC(=O)N[C@@H](Cc2ccc(O)cc2)C(=O)N(C)[C@@H](C)C(=O)N[C@@H](CC(N)=O)C(=O)N2CCC[C@H]2C(=O)N[C@@H](Cc2cnc[nH]2)C(=O)N[C@@H](CC(C)C)C(=O)N2CCC[C@H]2C(=O)N[C@@H](Cc2c[nH]c3ccccc23)C(=O)N[C@@H](CCO)C(=O)N[C@@H](Cc2csc3ccccc23)C(=O)N1C (stereo partly shown) [Example 9052] ({CH2CO}-Y[NMeA]NPHLPW[hSer][Bta][NMeNle][NMeNle]R[ξC]G-NH2; thioether N-14)
a: 0.385 to 6.74 nM
